Origin of the recorded values: patent US9994570B2

EXPERIMENTAL SYSTEM: rat orexin-1 receptor (Rattus norvegicus, UniProt P56718)
Sequence (P56718 whole entry): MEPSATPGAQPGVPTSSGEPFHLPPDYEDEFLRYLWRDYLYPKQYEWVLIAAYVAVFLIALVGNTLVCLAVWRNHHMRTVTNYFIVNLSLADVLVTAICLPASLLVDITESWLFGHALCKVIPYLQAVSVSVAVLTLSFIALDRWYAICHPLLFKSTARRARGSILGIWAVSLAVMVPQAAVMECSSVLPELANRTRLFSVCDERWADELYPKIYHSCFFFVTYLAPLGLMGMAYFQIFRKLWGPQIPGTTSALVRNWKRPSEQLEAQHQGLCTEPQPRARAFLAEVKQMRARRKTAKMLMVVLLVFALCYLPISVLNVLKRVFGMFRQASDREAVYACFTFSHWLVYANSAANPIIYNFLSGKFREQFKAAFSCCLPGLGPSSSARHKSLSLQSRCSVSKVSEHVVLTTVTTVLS
PROTOCOL DESCRIPTION: FLIPR Ca2+ flux assay, OX1R
CONDITION CONTEXT: CHO cells expressing the rat orexin-1 receptor; agonist 70 pM Ala-6,12 orexin-A
READOUT KIND: IC50 (nM)

I. Cc1cc(C)nc(N2CC3CC2CN(C(=O)c2ccccc2OCC(F)F)C3)n1 (centres unmarked)
II. Cc1cc(C)nc(N2CC3CC2CN(C(=O)c2cccnc2OCC(F)F)C3)n1 (centres unmarked)
Which numeric IC50 is bigger, that of I or that of II ? # respond with the chosen item's label
II

---

EXPERIMENTAL SYSTEM: human orexin-2 receptor (Homo sapiens)
Construct: expressed in transfected cells; host or cells: CHO cells (grown under G418 selection)
Sequence (O43614 whole entry): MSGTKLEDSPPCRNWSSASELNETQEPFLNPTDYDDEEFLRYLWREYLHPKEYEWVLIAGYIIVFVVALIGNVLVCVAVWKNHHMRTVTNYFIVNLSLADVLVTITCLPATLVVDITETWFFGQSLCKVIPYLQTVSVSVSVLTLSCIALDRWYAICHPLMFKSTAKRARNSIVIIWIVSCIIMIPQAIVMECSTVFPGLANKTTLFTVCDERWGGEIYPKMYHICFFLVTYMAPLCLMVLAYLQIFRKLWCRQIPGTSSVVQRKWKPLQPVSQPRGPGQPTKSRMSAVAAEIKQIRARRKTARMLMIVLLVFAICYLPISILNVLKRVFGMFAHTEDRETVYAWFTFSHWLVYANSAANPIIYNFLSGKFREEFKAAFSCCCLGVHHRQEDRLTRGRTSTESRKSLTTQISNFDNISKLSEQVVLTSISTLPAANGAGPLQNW
PROTOCOL DESCRIPTION: FLIPR Ca2+ flux assay, OX2R
Type: cell-based
CONDITION CONTEXT: OX1R FLIPR / OX2R FLIPR
READOUT KIND: Fold Selective

Looking up Cc1cc(C)nc(N2CC3CC2CN(C(=O)c2cccc(F)c2C2CC2)C3)n1 (stereo not drawn) , I see its Fold Selective listed as 44

Looking up Cc1cc(C)nc(N2CC3CC2CN(C(=O)c2ccccc2OCC(F)F)C3)n1 (stereo not drawn) , I see its Fold Selective listed as 61

Looking up Cc1cc(C)nc(N2CC3CC2CN(C(=O)c2cccnc2OC(C)C)C3)n1 (stereo not drawn) , I see its Fold Selective listed as 148

a. Cc1cc(C)nc(N2CC3CC2CN(C(=O)c2cccnc2OCCC(F)(F)F)C3)n1 (stereo not drawn)
b. Cc1cc(C#N)nc(N2CC3CC2CN(C(=O)c2cccnc2OCC(F)F)C3)n1 (stereo not drawn)
c. Cc1cc(C)nc(N2CC3CC2CN(C(=O)c2nccnc2OCC(F)F)C3)n1 (stereo not drawn)
Put the items in order so that reported Fold Selective rises from first to last. To answer, write out the labels according to the requested order.
a, c, b
(a: 44, c: 117, b: 174)

---

EXPERIMENTAL SYSTEM: UniProt:O43614
PROTOCOL DESCRIPTION: FLIPR Ca2+ flux assay, OX2R
CONDITION CONTEXT: CHO cells expressing the human orexin-2 receptor; agonist 70 pM Ala-6,12 orexin-A
READOUT KIND: IC50 (nM)

Recorded results for 4 compounds are shown here.
Looking up Cc1cc(C)nc(N2CC3CC2CN(C(=O)c2nccnc2OC(C)C)C3)n1 (stereo not drawn) [Example 52] , I see its IC50 listed as 60

Looking up Cc1cc(C)nc(N2CC3CC2CN(C(=O)c2cccnc2OCC(C)O)C3)n1 (stereo not drawn) [Example 45] , I see its IC50 listed as 90

Looking up Cc1cc(C)nc(N2CC3CC2CN(C(=O)c2ccccc2OC(C)C)C3)n1 (stereo not drawn) [Example 16] , I see its IC50 listed as 16

Looking up Cc1cc(C)nc(N2CC3CC2CN(C(=O)c2cccnc2OCC2CCC2)C3)n1 (stereo not drawn) [Example 42] , I see its IC50 listed as 15

A. Cc1cc(C)nc(N2CC3CC2CN(C(=O)c2cccnc2OC2CCCC2)C3)n1 (stereo not drawn) [Example 38]
B. Cc1cc(C)nc(N2CC3CC2CN(C(=O)c2ccccc2C2(F)CC2)C3)n1 (stereo not drawn) [Example 18]
Which record shows the lower IC50: the first, A , or the second, B ? # respond with the chosen item's label
B

1. Cc1cc(C)nc(N2CC3CC2CN(C(=O)c2nccnc2OCC(F)F)C3)n1 (stereo not drawn) [Example 49]
2. Cc1cc(C)nc(N2CC3CC2CN(C(=O)c2cccnc2OCC(F)(F)F)C3)n1 (stereo not drawn) [Example 22]
Which record shows the lower IC50: the first, 1 , or the second, 2 ? # respond with the chosen item's label
2
